Kindly state normalized growth for each of the entries shown.
# assay_name: chemical genetic growth profiling, strain panel (AID 1159580);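 further: tested at 20 µM; growth read once vehicle control cultures reached saturation at 30 °C; 1 = growth at the plate median or of vehicle wells; lower values mean less growth of the strain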
# run_conditions: S. cerevisiae deletion strains, growth OD, locus YDR159W, strain sac3, stronger effect = lower value
The whole screen tested about 5,500 compounds, of which about 2,000 (36%) were called active. Roughly 18% stayed inconclusive and do not appear here. The list shows a part of the results.
Lab note: record the figure alone, no unit after it.

Given the molecule NS(=O)(=O)c1cc2c(cc1Cl)NC=NS2(=O)=O , what is its reported normalized growth?
1

Given the molecule O=C(O)c1cc2cc(F)ccc2[nH]1 , what is its reported normalized growth?
0.995

Given the molecule CC(=O)Oc1cc(OC(C)=O)c2c(c1)O[C@H](c1ccc(OC(C)=O)c(OC(C)=O)c1)[C@H](OC(C)=O)C2 , what is its reported normalized growth?
1.02

Given the molecule CN(C)CCN(Cc1cccs1)c1ccccn1 , what is its reported normalized growth?
1.01

Given the molecule CN1C2CCC1CC(OC(c1ccccc1)c1ccccc1)C2 (configuration not stated) , what is its reported normalized growth?
0.976

Given the molecule CN1C2CCC1CC(OC(c1ccccc1)c1ccccc1N)C2 (configuration not stated) , what is its reported normalized growth?
1

Given the molecule CC1(C)S[C@@H]2[C@H](NC(=O)[C@H](N)c3ccccc3)C(=O)N2[C@H]1C(=O)O , what is its reported normalized growth?
0.981

====

# assay_name: chemical genetic growth profiling, strain panel (AID 1159580);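 further: tested at 20 µM; growth read once vehicle control cultures reached saturation at 30 °C; 1 = growth at the plate median or of vehicle wells; lower values mean less growth of the strain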
# run_conditions: S. cerevisiae deletion strains, growth OD, locus YML120C, strain ndi1, stronger effect = lower value
The campaign covered roughly 5,500 compounds. About 2,000 (36%) were called active. Another 18% or so got no clear call; they are omitted. This is one part of the list.
Kindly state normalized growth for each of the entries shown.
Lab note: record the figure alone, no unit after it.

Given the compound N=c1ccn2c(n1)OC1C(O)C(CO)OC12 (centres undefined) , what is its reported normalized growth?
0.993

Given the compound CCCCNC(=O)NS(=O)(=O)c1ccc(C)cc1 , what is its reported normalized growth?
1.03

Given the compound COc1ccc(C(CN(C)C)C2(O)CCCCC2)cc1 (centres undefined) , what is its reported normalized growth?
1

Given the compound COc1cc(CNC(=O)CCCC/C=C/C(C)C)ccc1O , what is its reported normalized growth?
0.984

Given the compound COc1ccc(C(=O)CC(=O)O)c2c1C=CC(C)(C)O2 , what is its reported normalized growth?
1.01

Given the compound O=S(=O)(O)c1cc(N=C=S)ccc1/C=C/c1ccc(N=C=S)cc1S(=O)(=O)O , what is its reported normalized growth?
1.01

Given the compound CCCCCCCCC(=O)NCc1ccc(O)c(OC)c1 , what is its reported normalized growth?
0.992

Given the compound CO/N=C1/CN(c2nc3c(cc2F)c(=O)c(C(=O)O)cn3C2CC2)CC1CN (centres undefined) , what is its reported normalized growth?
0.998

Given the compound COc1ccc(C(=O)O)cc1OC , what is its reported normalized growth?
1.01

====

# assay_name: chemical genetic growth profiling, strain panel (AID 1159580);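 further: tested at 20 µM; growth read once vehicle control cultures reached saturation at 30 °C; 1 = growth at the plate median or of vehicle wells; lower values mean less growth of the strain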
# run_conditions: S. cerevisiae deletion strains, growth OD, locus YOR083W, strain WHI5 (second series)
About 2,000 (36%) of roughly 5,500 compounds were called active. About 18% were inconclusive and are not listed. Rule as the data show it: active = normalized growth mostly below about 0.91 (no sharp cut-off); inconclusive = no clear call, values can overlap the other calls; inactive = mostly above about 0.92. The list shows a part of the results.
# valid calls are Yes (active), No (inactive); nothing else

Tell me the assay call for O=c1c(-c2ccc(O)cc2)coc2cc(O)ccc12 please.
No

Tell me the assay call for O=C1c2c(O)cc(O)cc2OC(c2ccc(O)c(O)c2)C1O (centres undefined) please.
No

Tell me the assay call for OC(CN1CCN(c2cccc(Cl)c2)CC1)C(c1ccccc1)c1ccccc1 (centres undefined) please.
Yes

Tell me the assay call for CN1C2CCC1CC(OC(c1ccccc1)c1ccc(Cl)cc1)C2 (centres undefined) please.
No

Origin of values: PubChem BioAssay AID1159580
